Data provenance is ChEMBL document CHEMBL1201862.

Biological target: UniProtKB P00735
Assay: thrombin protease inhibitors – biochemical, fluorescence polarization, uHTS hits, dose response (AID 602369)
Type: functional
Activity calls are given as the source filed them. No stated cut-off is given here; in the data, actives have a measured IC50 and inactives only a lower limit.
Just give me one of these, please: 1.0 for active, 0.0 for inactive

query: Returns: the outcome recorded for `Cc1cc(N=Nc2ccccc2C(=O)O)c(C)c(C)c1O` in this assay.
result: 1.0

query: Returns: the outcome recorded for `CCc1nc2oc3ccccc3c(=O)c2c(=O)n1-c1ccc(C)cc1` in this assay.
result: 1.0

query: Returns: the outcome recorded for `CCOc1ccc2nc(NC(=O)Cn3[nH]c(=O)c4ccccc4c3=O)sc2c1` in this assay.
result: 1.0

query: Returns: the outcome recorded for `COc1ccc2nc(N3C(=O)/C(=C/c4ccc(Cl)cc4)NC3=S)sc2c1` in this assay.
result: 1.0

query: Returns: the outcome recorded for `CCc1ccc(-n2cccc2/C=C2/C(=N)N3C(=NC2=O)SN=C3S(C)(=O)=O)cc1` in this assay.
result: 1.0

Field: next molecule
query: Returns: the outcome recorded for `COc1cc(/C=N/NC(=O)c2cccnc2)ccc1OCC(=O)Nc1ccccc1Cl` in this assay.
result: 0.0
